biological target: T1, huPD-L1 on H441 cells (human, UniProt Q9NZQ7 19-290); assay: flow cytometry, % of positive H441 cells (human lung adenocarcinoma cells expressing PD-L1)
T1 construct: whole, on cells; also called H441 cells (expressing huPD-L1)
T1 sequence (Q9NZQ7 19-290): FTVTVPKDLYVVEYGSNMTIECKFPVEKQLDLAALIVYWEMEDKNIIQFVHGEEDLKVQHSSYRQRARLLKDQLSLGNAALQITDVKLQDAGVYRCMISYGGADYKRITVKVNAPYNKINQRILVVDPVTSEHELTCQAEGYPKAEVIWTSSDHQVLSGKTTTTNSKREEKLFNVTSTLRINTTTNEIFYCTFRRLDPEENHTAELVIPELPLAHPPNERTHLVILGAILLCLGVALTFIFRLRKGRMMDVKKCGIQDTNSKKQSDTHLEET
Recorded Metric: pEC50
Scale: negative log10 of molar concentration, which is what pEC50 denotes.

[ask] Quick one: pEC50 of AVA04-227 (designed binder, also called AVA04 clone 227) Affimer polypeptide: MIPRGLSEAKPATPEIQEIVDKVKPQLEEKTNETYGKLEAVQYKTQVLAKDHGPIAWWSTNYYIKVRAGDNKYMHLKVFNGPEDTNTDGALADRVLTGYQVDKNKDDELTGFAAAGHHHHHH ?
[reply] 10.40

Further cases:
[ask] Give the measured pEC50 of AVA04-269 (designed binder, also called AVA04 clone 269) Affimer polypeptide: MIPRGLSEAKPATPEIQEIVDKVKPQLEEKTNETYGKLEAVQYKTQVLAKEYGPEEWWSTNYYIKVRAGDNKYMHLKVFNGPGDYEQVLIHADRVLTGYQVDKNKDDELTGFAAAGHHHHHH .
[reply] 11.00

[ask] Lookup AVA04-228 (designed binder, also called AVA04 clone 228) Affimer polypeptide: MIPRGLSEAKPATPEIQEIVDKVKPQLEEKTNETYGKLEAVQYKTQVLAKPYGPRDWDSTNYYIKVRAGDNKYMHLKVFNGPEPQLDTSPIADRVLTGYQVDKNKDDELTGFAAAGHHHHHH
[reply] 9.74

[ask] Queued: AVA04-251 (designed binder) MIPRGLSEAKPATPEIQEIVDKVKPQLEEKTNETYGKLEAVQYKTQVLAREGRQDWVLSTNYYIKVRAGDNKYMHLKVFNGPWVPFPHQQLADRVLTGYQVDKNKDDELTGFAAAGHHHHHH
[reply] 8.69
